Published IC50 for Heat shock protein HSP 90-alpha (Homo sapiens, UniProt P07900), assembled from different documents, is shown next.

[
  {
    "smilesInput": "CC(C)c1cc(C(=O)N2Cc3ccc(NC(=O)CCCCC(=O)NO)cc3C2)c(O)cc1O",
    "IC50 (nM)": 109
  },
  {
    "smilesInput": "NC(=O)c1ccc(-n2ncc3c(-c4cnc5ccccc5c4)cccc32)cc1N[C@H]1CC[C@H](O)CC1",
    "IC50 (nM)": 365
  },
  {
    "smilesInput": "CC(C)c1n[nH]c2nccc(-n3cnc(-c4cnn(C)c4)c3)c12",
    "IC50 (nM)": 300000
  },
  {
    "smilesInput": "COc1nc(-c2cc(F)ccc2[C@H]2Cc3nc(N)nc(C)c3C(=O)N2)cs1",
    "IC50 (nM)": 27
  },
  {
    "smilesInput": "COC(=O)c1cccc2c1ccn2-c1cc(C(=O)N2Cc3ccccc3C2)c(O)cc1O",
    "IC50 (nM)": 130
  }
]
